- Tested on: Zea mays
- method-description: Postemergence herbicidal activity (Example 67)
- Format: in vivo
- experimental-conditions: pos; 800 g/ha; rated after 10-21 days

[
  {
    "compound": "COc1ccc(-c2nsc(C(=O)NC(C)c3ccc(C)s3)n2)cc1 (racemic)",
    "herbicide rating, ZEAMX": 0
  },
  {
    "compound": "CCCCc1nsc(C(=O)NC(C)c2cccs2)n1 (racemic)",
    "herbicide rating, ZEAMX": 0
  },
  {
    "compound": "COCCc1nsc(C(=O)N[C@@H](C)c2ccccc2)n1",
    "herbicide rating, ZEAMX": 0
  },
  {
    "compound": "COc1ccc(-c2nsc(C(=O)NCc3cccs3)n2)cc1",
    "herbicide rating, ZEAMX": 0
  },
  {
    "compound": "CC(NC(=O)c1nc(C=Cc2ccccc2)ns1)c1cccs1 (racemic)",
    "herbicide rating, ZEAMX": 0
  },
  {
    "compound": "COCCc1nsc(C(=O)NC(C)c2cccs2)n1 (racemic)",
    "herbicide rating, ZEAMX": 0
  },
  {
    "compound": "O=C(NCc1cccs1)c1nc(C=Cc2ccccc2)ns1",
    "herbicide rating, ZEAMX": 0
  },
  {
    "compound": "C[C@H](NC(=O)c1nc(C=Cc2ccccc2)ns1)c1ccccc1",
    "herbicide rating, ZEAMX": 0
  },
  {
    "compound": "CCCCc1nsc(C(=O)N[C@@H](C)c2ccccc2)n1",
    "herbicide rating, ZEAMX": 0
  }
]

* * *

- Tested on: Helianthus annuus
- method-description: Postemergence herbicidal activity (Example 67)
- Format: in vivo
- experimental-conditions: pos, 800 g/ha
// reported HEL AN rating per item

[
  {
    "compound": "C[C@H](NC(=O)c1nsc(-c2ccccc2)n1)c1ccccc1",
    "assayed-target": "Helianthus annuus",
    "HEL AN rating": "9 (100% effect)"
  },
  {
    "compound": "O=C(NCc1cccs1)c1nc(-c2c(F)cccc2F)ns1",
    "assayed-target": "Helianthus annuus",
    "HEL AN rating": "3 (16-29%)"
  },
  {
    "compound": "CC(NC(=O)c1nsc(-c2ccccc2F)n1)c1cccs1 (racemic)",
    "assayed-target": "Helianthus annuus",
    "HEL AN rating": "8 (91-99%)"
  },
  {
    "compound": "C[C@H](NC(=O)c1nc(-c2c(F)cccc2F)ns1)c1ccccc1",
    "assayed-target": "Helianthus annuus",
    "HEL AN rating": "6 (65-79%)"
  },
  {
    "compound": "O=C(Nc1ccc(F)cc1F)c1nsc(-c2cccc(C(F)(F)F)c2)n1",
    "assayed-target": "Helianthus annuus",
    "HEL AN rating": 0
  },
  {
    "compound": "O=C(NCc1cccs1)c1nc(-c2cccc(F)c2)ns1",
    "assayed-target": "Helianthus annuus",
    "HEL AN rating": 0
  },
  {
    "compound": "CC(NC(=O)c1nc(-c2c(F)cccc2F)ns1)c1cccs1 (racemic)",
    "assayed-target": "Helianthus annuus",
    "HEL AN rating": "9 (100% effect)"
  },
  {
    "compound": "Cc1ccc(-c2nc(C(=O)NC(C)c3cccs3)ns2)cc1 (racemic)",
    "assayed-target": "Helianthus annuus",
    "HEL AN rating": "5 (45-64%)"
  },
  {
    "compound": "C[C@H](NC(=O)c1nsc(-c2cccc(C(F)(F)F)c2)n1)c1ccccc1",
    "assayed-target": "Helianthus annuus",
    "HEL AN rating": "3 (16-29%)"
  },
  {
    "compound": "COc1ccc(-c2nsc(C(=O)Nc3cccc4c3CCCC4)n2)cc1",
    "assayed-target": "Helianthus annuus",
    "HEL AN rating": "2 (6-15%)"
  },
  {
    "compound": "O=C(NCc1cccs1)c1nsc(-c2ccccc2)n1",
    "assayed-target": "Helianthus annuus",
    "HEL AN rating": "8 (91-99%)"
  },
  {
    "compound": "O=C(Nc1cccc(F)c1)c1nsc(-c2cccc(C(F)(F)F)c2)n1",
    "assayed-target": "Helianthus annuus",
    "HEL AN rating": 0
  },
  {
    "compound": "COc1ccc(-c2nc(C(=O)NC(C)c3cccs3)ns2)cc1 (racemic)",
    "assayed-target": "Helianthus annuus",
    "HEL AN rating": "8 (91-99%)"
  },
  {
    "compound": "O=C(NCc1cccs1)c1nc(-c2ccccc2F)ns1",
    "assayed-target": "Helianthus annuus",
    "HEL AN rating": "3 (16-29%)"
  },
  {
    "compound": "COc1ccc(-c2nsc(C(=O)NC(C)c3ccsc3)n2)cc1 (racemic)",
    "assayed-target": "Helianthus annuus",
    "HEL AN rating": "2 (6-15%)"
  },
  {
    "compound": "C[C@H](NC(=O)c1nsc(-c2ccccc2F)n1)c1ccccc1",
    "assayed-target": "Helianthus annuus",
    "HEL AN rating": "8 (91-99%)"
  },
  {
    "compound": "COc1ccc(-c2nsc(C(=O)NC3CCCc4ccccc43)n2)cc1 (racemic)",
    "assayed-target": "Helianthus annuus",
    "HEL AN rating": "4 (30-44%)"
  },
  {
    "compound": "O=C(Nc1ccccc1)c1nsc(-c2cccc(C(F)(F)F)c2)n1",
    "assayed-target": "Helianthus annuus",
    "HEL AN rating": 0
  },
  {
    "compound": "O=C(NC1CCCc2ccccc21)c1nc(-c2ccccc2F)ns1 (racemic)",
    "assayed-target": "Helianthus annuus",
    "HEL AN rating": 0
  }
]
